Sourced from patent US20100267825A1

measurement_protocol: In vitro catalase activity (colorimetric peroxidase/ABTS-coupled assay)
Type: biochemical
setup_conditions: salen-metal complexes; relative to C7 (EUK-8) set at 100%; 10 μM compound, 100 μM hydrogen peroxide, pH 7.4, hydrogen peroxide consumed at 20 minutes

[
  {
    "molecule": "COc1cccc(C=NCCN=Cc2cccc(OC)c2[O-])c1[O-].[Cl-].[Mn+3] [C40 (EUK-134)]",
    "Relative Catalase Rate, %": 155
  },
  {
    "molecule": "CC(=O)[O-].COc1ccc(C=NCCN=Cc2ccc(OC)cc2[O-])c([O-])c1.[Mn+3] [C33]",
    "Relative Catalase Rate, %": 38
  },
  {
    "molecule": "[Cl-].[Mn+3].[O-]c1c(F)cccc1C=NCCN=Cc1cccc(F)c1[O-] [C37]",
    "Relative Catalase Rate, %": 117
  },
  {
    "molecule": "COc1cccc(C=Nc2ccccc2N=Cc2cccc(OC)c2[O-])c1[O-].[Cl-].[Mn+3] [C81]",
    "Relative Catalase Rate, %": 493
  },
  {
    "molecule": "CC(=NCCN=C(C)c1ccccc1[O-])c1ccccc1[O-].CC(=O)[O-].[Mn+3] [C85]",
    "Relative Catalase Rate, %": 31
  },
  {
    "molecule": "CC(=O)[O-].COc1cc(Br)c([O-])c(C=Nc2ccccc2N=Cc2cc(OC)cc(Br)c2[O-])c1.[Mn+3] [C76]",
    "Relative Catalase Rate, %": 427
  },
  {
    "molecule": "CC(=O)[O-].[Mn+3].[O-]c1c(F)cccc1C=NCCN=Cc1cccc(F)c1[O-] [C36]",
    "Relative Catalase Rate, %": 128
  },
  {
    "molecule": "CC(=O)[O-].COc1cc([O-])c(C=NCCN=Cc2c([O-])cc(OC)cc2OC)c(OC)c1.[Mn+3] [C35]",
    "Relative Catalase Rate, %": 25
  }
]
